Test system: SF-539 CNS
Test: NCI tumour cell line growth inhibition, 48 h

compound: O=C1[C@@H]2C(c3ccccc3[N+](=O)[O-])=[N+](c3ccccc3)O[C@@H]2C(=O)N1c1ccc(Cc2ccc(N3C(=O)[C@H]4C(c5ccccc5[N+](=O)[O-])=[N+](c5ccccc5)O[C@H]4C3=O)cc2)cc1
TGI: > 100 µM
//
compound: COc1ccc(Nc2cc(C)nc(NCc3ccccc3)n2)cc1
TGI: 16.7 µM
//
compound: COc1cc2c(cc1OC)CC(=O)Nc1cc(OC)c(OC)cc1CC2
TGI: 97.2 µM
//
compound: C#C/C=C\CCCCCCCCCCCCCC/C=C\CCCCC#CC(O)C#CCCCC/C=C\CCCCCC/C=C/C(O)C#C (stereo unspecified)
TGI: > 75 µM
//
compound: O=C(O)CCc1nc2ccccc2[nH]1
TGI: > 100 µM
//
compound: CC/C(=C(/c1ccc(O)cc1)c1ccc(OCCN)cc1)c1ccccc1
TGI: 8.01 µM
//
compound: O=[N+]([O-])c1ccc(C2CC(c3ccccc3)=Nc3ccccc3S2)cc1 (stereo unspecified)
TGI: > 100 µM
//
compound: CCN1C(=O)N(CC)C2C1NN=c1s/c(=C\c3ccco3)c(=O)n12 (stereo unspecified)
TGI: 6.48 µM
//
compound: COc1cc2oc(-c3ccc4c(c3)OCO4)c(OC)c(=O)c2c(OC)c1O
TGI: > 100 µM
//
compound: O=C(CCCN1CCC(Nc2ccccc2)(c2nnnn2C2CCCCC2)CC1)c1ccc(F)cc1
TGI: 5.66 µM
//
compound: CN(C)CCNC(=O)c1cccc2c(NC(CS)C(=O)O)c3ccccc3[n+](C)c12 (stereo unspecified)
TGI: > 100 µM
//
compound: c1ccc(C(NC2=NCCO2)c2ccccc2)cc1
TGI: > 10 µM
//
compound: CC(C)(C)OC(=O)NC(Cc1ccc(O)cn1)C(=O)O (stereo unspecified)
TGI: > 100 µM
//
compound: CCOC(=O)c1cc(C(=O)c2cc(OC)c(OC)c(OC)c2)n2c1ccc1ccccc12
TGI: 0.723 µM
//
compound: CCOC(=O)C1(N)CCc2[nH][nH]c(=O)c2C1 (stereo unspecified)
TGI: > 100 µM
//
compound: CCOC(=O)C(N=C(c1ccccc1)c1ccccc1)N(C(=O)OC(C)(C)C)C(=O)OC(C)(C)C (stereo unspecified)
TGI: > 100 µM
//
compound: CCOC(=O)Cn1c(=O)c2nc(SC)sc2n(-c2ccccc2)c1=S
TGI: 31.6 µM
//
compound: NC(=O)c1ncn(C2OC(CO)C(O)C2O)c1NC=O (stereo unspecified)
TGI: > 100 µM
//
compound: CC(=O)Oc1ccc2cc(Oc3ccc(Cl)c(Cl)c3)c(=O)oc2c1
TGI: 46.8 µM
//
compound: O=C(NCc1cccnc1)C1COc2cc(-c3cc(=O)c4ccccc4o3)ccc2O1 (stereo unspecified)
TGI: 16.4 µM
//
compound: C[C@@H](NC(=O)/C(C#N)=C/c1ccc([N+](=O)[O-])cc1)c1ccccc1
TGI: 3.37 µM
//
compound: CCOC(=O)C1C(C)C2(C#N)C(=N)OC1(C)C2(C#N)C#N (stereo unspecified)
TGI: > 100 µM
//
compound: NC(=O)/C(=N\NC(=O)C[n+]1ccccc1)C1NC(=O)NC1=O (stereo unspecified)
TGI: > 100 µM
//
compound: O[C@H]1[C@H](O)[C@@H](O)[C@@]2(O)CC[C@@H]1N2
TGI: > 100 µM
//
compound: NC(=O)c1cccc(N=c2oc3ccc(Br)cc3cc2-c2nc3ccccc3[nH]2)c1
TGI: 14.4 µM
//
compound: CCOP12(OCC)NC(=O)OC1(C(F)(F)F)c1ccccc1O2 (stereo unspecified)
TGI: > 100 µM
//
compound: COc1ccc(Cc2c(=O)[nH]nc3ccccc23)cc1
TGI: > 100 µM
//
compound: Cn1ncc2c(Nc3cccc(Cl)c3)nc(Nc3cccc(Cl)c3)nc21
TGI: 52 µM
//
compound: O=C1CC2(CCC3=C(O2)c2ccccc2NC(=O)C3)C(=O)c2ccccc2N1 (stereo unspecified)
TGI: > 100 µM
//
compound: N#CC1=C(c2ccccc2)C(=C2Nc3ccccc3N2)C2S/C(=C\c3ccccc3)C(=O)N2C1=N (stereo unspecified)
TGI: 3.35 µM
//
compound: O=[N+]([O-])c1ccc(C2=Nn3c(nnc3-c3ccc(Cl)cc3)SC2)o1
TGI: 20.5 µM
//
compound: C/C(=N\NC(=S)N(C)C)c1nc2ncccc2[nH]1
TGI: 5.11 µM
//
compound: O=C1/C(=C/c2ccco2)N=C2Sc3c(nc[nH]c3=O)N12
TGI: > 100 µM
//
compound: N#Cc1c(N)n2c(nc1=Nc1ccc(Cl)cc1)sc1cc(Cl)ccc12
TGI: > 100 µM
//
compound: O=C(Nc1ccc(-n2cc(-c3ccncc3)c(-c3ccc(O)c(Cl)c3)n2)cc1)Nc1ccc(Cl)c(C(F)(F)F)c1
TGI: 12.5 µM
//
compound: COc1cc(/C=N\c2nc(-c3ccc(NS(=O)(=O)c4ccc(Cl)c(OC)c4)cc3)cs2)ccc1O
TGI: > 100 µM
//
compound: NC(N)=NC(N)=Nc1cnccn1
TGI: > 100 µM
//
compound: CC1(C)CC[C@]2(C(=O)O)CC[C@]3(C)C(=CC[C@@H]4[C@@]5(C)C[C@H](O)[C@H](O)[C@@](C)(C(=O)O)[C@@H]5CC[C@]43C)[C@@H]2C1
TGI: > 100 µM
//
compound: Cc1nn2c(nc1=O)sc1ccc3ccccc3c12
TGI: > 100 µM
//
compound: CC1=NN(c2ccc(S(=O)(=O)O)cc2)C(=O)/C1=C/c1ccc(Cl)cc1
TGI: > 100 µM
//
compound: Cc1[nH]c(=O)[nH]c(=O)c1/C=C/C(=O)NC(CO)CS(=O)Cc1ccccc1 (stereo unspecified)
TGI: > 300 µM
